pIC50: −log10 of the molar value.
Caspase-6 (Homo sapiens, UniProt P55212): recorded pIC50 for assorted compounds
Sequence (P55212 24-179 limits assumed): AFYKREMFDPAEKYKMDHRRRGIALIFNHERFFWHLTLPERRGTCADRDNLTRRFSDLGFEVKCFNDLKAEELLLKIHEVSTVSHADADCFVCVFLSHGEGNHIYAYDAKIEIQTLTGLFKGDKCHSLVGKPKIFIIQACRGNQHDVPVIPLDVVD
Sequence (P55212 194-293 limits assumed): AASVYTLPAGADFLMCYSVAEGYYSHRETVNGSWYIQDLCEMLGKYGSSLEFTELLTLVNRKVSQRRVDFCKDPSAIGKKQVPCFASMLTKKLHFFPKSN
REPORTED_ENDPOINT: pIC50

structure=COc1ccc(CN2C(=O)C(=C(C#N)C#N)c3cc(S(=O)(=O)N4CC[C@H]4COc4cccnc4)ccc32)cc1 reported_endpoint=pIC50 readout_relation== experimental_value=6.35
structure=O=C1C(=O)N(Cc2cn(CCF)nn2)c2ccc(S(=O)(=O)N3CC[C@H]3COc3cccnc3)cc21 reported_endpoint=pIC50 readout_relation== experimental_value=5.11
structure=O=C1C(=O)N(Cc2ccc(OCCF)cc2)c2ccc(S(=O)(=O)N3CC[C@H]3COc3cccnc3)cc21 reported_endpoint=pIC50 readout_relation== experimental_value=5.06
structure=O=C1C(=O)N(Cc2ccc(OCCOCCOCCF)cc2)c2ccc(S(=O)(=O)N3CC[C@H]3COc3ccccc3)cc21 reported_endpoint=pIC50 readout_relation== experimental_value=5.52
structure=O=C1C(=O)N(Cc2ccc(OCCF)cc2)c2ccc(S(=O)(=O)N3CCC[C@H]3COc3cccnc3)cc21 reported_endpoint=pIC50 readout_relation== experimental_value=5.16
structure=O=C1C(=O)N(Cc2ccc(OCCOCCF)cc2)c2ccc(S(=O)(=O)N3CCC[C@H]3COc3ccccc3)cc21 reported_endpoint=pIC50 readout_relation=< experimental_value=5.00
structure=O=C1C(=O)N(Cc2cn(CCF)nn2)c2ccc(S(=O)(=O)N3CC[C@H]3COc3ccccc3)cc21 reported_endpoint=pIC50 readout_relation== experimental_value=5.16

Data credit: ChEMBL document CHEMBL1759857
